target: Histamine H1 receptor (Cavia porcellus) (UniProt P31389); assay: Contractile effect on isolated guinea pig ileal segments is a measure of H1 (histamine) receptor agonistic activity relative to histamine.; type: functional
Sequence (P31389 whole entry): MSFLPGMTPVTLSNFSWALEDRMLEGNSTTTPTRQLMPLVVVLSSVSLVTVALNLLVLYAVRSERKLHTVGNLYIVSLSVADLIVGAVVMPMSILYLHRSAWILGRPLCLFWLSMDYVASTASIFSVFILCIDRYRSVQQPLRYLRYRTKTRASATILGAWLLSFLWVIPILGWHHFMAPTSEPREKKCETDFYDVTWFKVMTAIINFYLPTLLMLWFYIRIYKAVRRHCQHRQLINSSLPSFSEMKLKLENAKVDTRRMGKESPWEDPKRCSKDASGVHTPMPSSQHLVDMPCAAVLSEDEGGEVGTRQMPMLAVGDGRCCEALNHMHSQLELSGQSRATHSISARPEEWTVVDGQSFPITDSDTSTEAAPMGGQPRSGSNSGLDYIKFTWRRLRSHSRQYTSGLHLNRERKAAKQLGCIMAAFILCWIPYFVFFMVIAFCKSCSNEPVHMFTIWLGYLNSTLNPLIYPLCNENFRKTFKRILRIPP
attribute measured: Relative activity
Show the value, then the unit it is measured in.

Use the examples below as a reference point.
>  <smiles data>
NCCc1c[nH]c(-c2cccc(C(F)(F)F)c2)n1

>  <Relative activity>
128%

$$$$
>  <smiles data>
NCCc1c[nH]c(-c2cncc(Br)c2)n1

>  <Relative activity>
70%

$$$$

stdin: Indicate its recorded Relative activity; the compound in question is "COc1cccc(-c2nc(CCN)c[nH]2)c1"
stdout: 40%

stdin: Determine from records and report Relative activity for "NCCc1nccs1"
stdout: 45%

stdin: Consider the compound "NCCc1c[nH]c(Cc2cccc(Cl)c2)n1" . State its measured Relative activity.
stdout: 2%

stdin: For the compound "Cc1ncc(CCN)[nH]1" , report Relative activity.
stdout: 15%

stdin: Dear colleague, please send me the reported Relative activity for "NCCc1c[nH]c(-c2cccc(I)c2)n1" when you can.
stdout: 96%

stdin: Annotate the compound "NCCc1c[nH]c(-c2cccs2)n1" with its measured Relative activity.
stdout: 46%

stdin: State, in one line, measured Relative activity of "NCCc1c[nH]c(-c2ccc3ccccc3c2)n1"
stdout: 1%

stdin: Please report Relative activity for the following compound: "NCCc1c[nH]c(-c2cccc(OC(F)(F)F)c2)n1"
stdout: 54%

stdin: Return value of Relative activity for input "NCCc1c[nH]c(-c2ccc[nH]2)n1" , no commentary.
stdout: 14%

###

molecular target: Histamine H1 receptor (Cavia porcellus) (UniProt P31389); test: H1-Histamine receptor agonism on Guinea pig aorta was evaluated as Intrinsic activity given as 1.0 with respect to histamine (paired 't'test;p>0.05); format: functional, tissue-based
Property: Intrinsic activity; scope: individual molecules
The reply should be a number, written without any unit.

Please review the following examples before continuing.
>  <smiles data>
NCCc1c[nH]c(-c2cccc(I)c2)n1

>  <Intrinsic activity>
0.49

$$$$
>  <smiles data>
NCCc1c[nH]c(Cc2cccc(Cl)c2)n1

>  <Intrinsic activity>
0.51

$$$$
>  <smiles data>
NCCc1c[nH]c(-c2ccccc2)n1

>  <Intrinsic activity>
0.86

$$$$
>  <smiles data>
NCCc1c[nH]c(-c2cccc(Br)c2)n1

>  <Intrinsic activity>
0.64

$$$$
>  <smiles data>
NCCc1c[nH]c(-c2cccc(C(F)(F)F)c2)n1

>  <Intrinsic activity>
0.8

$$$$
>  <smiles data>
NCCc1nccs1

>  <Intrinsic activity>
1.02

$$$$
>  <smiles data>
NCCc1c[nH]c(Cc2ccccc2Cl)n1

>  <Intrinsic activity>
0.38

$$$$
>  <smiles data>
NCCc1c[nH]c(Cc2ccsc2)n1

>  <Intrinsic activity>
0.4

$$$$

We now examine a further molecule.
stdin: Please report Intrinsic activity for the following molecule: "NCCc1c[nH]cn1"
stdout: 1.06

###

target: Histamine H1 receptor (Cavia porcellus) (UniProt P31389); experiment: Contractile effect on isolated guinea pig aorta is a measure of H1 (histamine) receptor agonistic activity relative to histamine; format: functional, tissue-based
attribute measured: Relative activity
Quick note: unit goes after the number.

Recorded results for 4 molecules are shown here.
>  <smiles data>
NCCc1c[nH]c(Cc2ccsc2)n1

>  <reported measurement>
0.9%

$$$$
>  <smiles data>
NCCc1c[nH]c(-c2cccc(C(F)(F)F)c2)n1

>  <reported measurement>
94%

$$$$
>  <smiles data>
NCCc1c[nH]c(-c2ccco2)n1

>  <reported measurement>
23%

$$$$
>  <smiles data>
NCCc1c[nH]c(-c2csc(Br)c2)n1

>  <reported measurement>
11%

$$$$

stdin: Return reported Relative activity. Input molecule: "NCCc1c[nH]c(-c2cccs2)n1"
stdout: 12%

stdin: Supply Relative activity value. Item: "NCCc1nccs1"
stdout: 18%

stdin: Answer with reported Relative activity of "NCCc1c[nH]c(-c2ccc[nH]2)n1"
stdout: 12%

stdin: Note Relative activity for the molecule shown: "NCCc1c[nH]c(-c2ccsc2)n1"
stdout: 19%

###

target: Histamine H1 receptor (Cavia porcellus); assay: H1-Histamine receptor agonism on Guinea pig aorta was evaluated as Intrinsic activity given as 1.0 with respect to histamine (paired 't'test;p>0.05)(SEM 0.01-0.12); assay type: functional, tissue-based
Intrinsic activity for assorted molecules
API note: the answer field is a bare number with no unit suffix.

stdin: Please report the measured Intrinsic activity for "NCCc1c[nH]c(-c2ccc[nH]2)n1"
stdout: 0.74

stdin: Identify measured Intrinsic activity corresponding to "NCCc1c[nH]c(Cc2cccs2)n1"
stdout: 0.45

stdin: For the molecule "NCCc1c[nH]c(-c2ccsc2)n1" , give its measured Intrinsic activity value.
stdout: 0.43

stdin: Return reported Intrinsic activity. Input molecule: "NCCc1c[nH]c(-c2csc(Br)c2)n1"
stdout: 0.6

###

molecular target: UniProt:P31389; experiment: Contractile effect on isolated guinea pig ileal segments by H1 (histamine) receptor agonism.; type: functional
attribute measured: pD2
No unit in the answer, only the number.

>  <smiles data>
NCCc1c[nH]c(-c2cccs2)n1

>  <pD2>
6.36

$$$$
>  <smiles data>
Cc1cccc(-c2nc(CCN)c[nH]2)c1

>  <pD2>
5.87

$$$$
>  <smiles data>
NCCc1c[nH]c(Cc2cccc(Cl)c2)n1

>  <pD2>
4.88

$$$$
>  <smiles data>
NCCc1c[nH]c(-c2csc(Br)c2)n1

>  <pD2>
6.11

$$$$

stdin: Look up and report measured pD2 for this entry: "NCCc1c[nH]c(-c2ccc[nH]2)n1"
stdout: 5.86

stdin: Item "NCCc1c[nH]c(Cc2ccccc2Cl)n1" : provide pD2
stdout: 5.11

stdin: For "NCCc1c[nH]c(Cc2cccs2)n1" , write its pD2.
stdout: 5.09

stdin: Report measured pD2; entry is "NCCc1c[nH]c(-c2ccc(C(F)(F)F)cc2)n1"
stdout: 4.6

stdin: Output pD2 of "NCCc1c[nH]c(Cc2cccc(C(F)(F)F)c2)n1"
stdout: 4.57

stdin: Provide only the value of recorded pD2 for "NCCc1c[nH]c(-c2ccco2)n1"
stdout: 6.37

###

Intrinsic activity listing for selected molecules.
molecular target: Histamine H2 receptor (Cavia porcellus) (UniProt P47747); experiment: Histamine H2 receptor agonism activity was determined on the isolated Guinea pig Atrium was determined as Intrinsic activity with respect to Histamine; assay type: functional
Sequence (P47747 whole entry): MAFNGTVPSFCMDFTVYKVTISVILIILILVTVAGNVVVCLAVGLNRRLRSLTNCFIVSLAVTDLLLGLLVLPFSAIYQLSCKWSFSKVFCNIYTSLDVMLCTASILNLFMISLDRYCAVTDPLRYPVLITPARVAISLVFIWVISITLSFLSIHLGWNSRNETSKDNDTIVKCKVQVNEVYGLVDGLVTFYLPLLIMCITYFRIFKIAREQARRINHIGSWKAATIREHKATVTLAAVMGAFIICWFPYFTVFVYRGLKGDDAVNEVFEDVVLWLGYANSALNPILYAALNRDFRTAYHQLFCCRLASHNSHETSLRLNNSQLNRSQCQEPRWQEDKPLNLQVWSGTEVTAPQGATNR
The reply should be a number, written without any unit.

>  <smiles data>
NCCc1c[nH]c(-c2cccc(Br)c2)n1

>  <study target>
Histamine H2 receptor (Cavia porcellus) (UniProt P47747)

>  <reported measurement>
0

$$$$
>  <smiles data>
NCCc1c[nH]c(-c2ccccc2)n1

>  <study target>
Histamine H2 receptor (Cavia porcellus) (UniProt P47747)

>  <reported measurement>
0.2

$$$$
>  <smiles data>
NCCc1c[nH]c(-c2ccsc2)n1

>  <study target>
Histamine H2 receptor (Cavia porcellus) (UniProt P47747)

>  <reported measurement>
0.13

$$$$
>  <smiles data>
NCCc1c[nH]c(-c2ccco2)n1

>  <study target>
Histamine H2 receptor (Cavia porcellus) (UniProt P47747)

>  <reported measurement>
0.36

$$$$
>  <smiles data>
NCCc1c[nH]cn1

>  <study target>
Histamine H2 receptor (Cavia porcellus) (UniProt P47747)

>  <reported measurement>
1

$$$$

stdin: Supply recorded Intrinsic activity for "NCCc1c[nH]c(-c2cccc(C(F)(F)F)c2)n1" here.
stdout: 0

stdin: Return Intrinsic activity for the following molecule: "NCCc1c[nH]c(-c2cccs2)n1"
stdout: 0.25

stdin: # return recorded Intrinsic activity for input "NCCc1c[nH]c(-c2cccc(I)c2)n1"
stdout: 0

stdin: Find the measured Intrinsic activity of "NCCc1c[nH]c(C(F)(F)F)n1" and report it.
stdout: 0.55

###

Listing: pKb of selected molecules
biological target: Histamine H1 receptor (Cavia porcellus); assay: Contractile effects on guinea pig aorta as histamine H1 receptor agonism; type: functional, tissue-based
Lab note: record just the number, no unit beside it.

Known results for molecules:
>  <smiles data>
NCCc1nccs1

>  <study target>
Histamine H1 receptor (Cavia porcellus)

>  <pKb>
9.02

$$$$
>  <smiles data>
NCCc1c[nH]c(-c2ccco2)n1

>  <study target>
Histamine H1 receptor (Cavia porcellus)

>  <pKb>
9.28

$$$$

stdin: Report measured pKb; entry is "NCCc1c[nH]c(-c2ccc[nH]2)n1"
stdout: 9.27

stdin: Give the reported pKb for this molecule. "NCCc1c[nH]c(-c2csc(Br)c2)n1"
stdout: 8.63

###

molecular target: UniProt P31389; experiment: The H1 receptor-mediated nature of the ileum contractionhas been verified by competition experiments with the H1 receptor antagonist mepyramine; format: functional, tissue-based
Here, each record is paired with measured pKb data.
I'd appreciate a reply containing only the number, no unit.

Please review the entries below; each comes with its answer.
>  <smiles data>
NCCc1c[nH]c(-c2ccco2)n1

>  <attribute measured>
pKb

>  <reported measurement>
9.16

$$$$
>  <smiles data>
NCCc1c[nH]c(-c2cccc(I)c2)n1

>  <attribute measured>
pKb

>  <reported measurement>
9.28

$$$$
>  <smiles data>
NCCc1c[nH]c(-c2ccsc2)n1

>  <attribute measured>
pKb

>  <reported measurement>
9.13

$$$$
>  <smiles data>
NCCc1c[nH]c(-c2cccc(OC(F)(F)F)c2)n1

>  <attribute measured>
pKb

>  <reported measurement>
8.92

$$$$
>  <smiles data>
NCCc1c[nH]c(-c2cccs2)n1

>  <attribute measured>
pKb

>  <reported measurement>
8.93

$$$$

stdin: Report its pKb with UniProt P31389 as the test system: "NCCc1c[nH]c(Cc2ccccc2C(F)(F)F)n1"
stdout: 3.55

stdin: State the measured pKb (UniProt P31389) of "NCCc1c[nH]c(Cc2ccsc2)n1"
stdout: 8.97

stdin: Give measured pKb for "NCCc1c[nH]c(-c2csc(Br)c2)n1" (UniProt P31389).
stdout: 9.04

stdin: Provide the reported pKb (system: UniProt P31389) for "NCCc1c[nH]c(C(F)(F)F)n1"
stdout: 9.19

stdin: Report pKb from UniProt P31389 testing of "NCCc1c[nH]c(-c2cccc(C(F)(F)F)c2)n1"
stdout: 9.14

stdin: Write pKb of "NCCc1c[nH]c(Cc2ccccc2Cl)n1" ; system used: UniProt P31389
stdout: 8.91

stdin: Output reported pKb of the molecule "NCCc1c[nH]c(-c2ccc[nH]2)n1" on UniProt P31389.
stdout: 9.03

stdin: Fill: pKb (UniProt P31389) for this molecule "NCCc1c[nH]c(Cc2cccs2)n1"
stdout: 8.92

stdin: Param request: pKb | system UniProt P31389 | item "NCCc1c[nH]c(Cc2cccc(Cl)c2)n1"
stdout: 8.81

stdin: Write down the reported pKb (system: UniProt P31389) of "NCCc1c[nH]cn1"
stdout: 9.09

stdin: Return reported pKb for target or system UniProt P31389, item "NCCc1c[nH]c(-c2cc3ccccc3c3ccccc23)n1" .
stdout: 4.73

stdin: Please respond with reported pKb (system UniProt P31389) for "NCCc1c[nH]c(-c2ccccc2)n1" .
stdout: 8.87
